Recorded values, source ChEMBL document CHEMBL4152224.

# test name: in vivo
# test settings: rat

{"smiles record": "CO[C@H]1C[C@@H](n2c(=O)n(C)c3cnc4ccc(-c5ccc(OCCCN(C)C)nc5)cc4c32)C1", "clearance (mL/min/kg)": 19.5}
{"smiles record": "COCc1ccc(-c2cc3c(cc2F)ncc2c3n([C@H]3C[C@@H](OC)C3)c(=O)n2C)cn1", "clearance (mL/min/kg)": 22.5}

###

# assayed system: Cytochrome P450 2C19 (Homo sapiens, UniProt P33261)
# Sequence (P33261 whole entry): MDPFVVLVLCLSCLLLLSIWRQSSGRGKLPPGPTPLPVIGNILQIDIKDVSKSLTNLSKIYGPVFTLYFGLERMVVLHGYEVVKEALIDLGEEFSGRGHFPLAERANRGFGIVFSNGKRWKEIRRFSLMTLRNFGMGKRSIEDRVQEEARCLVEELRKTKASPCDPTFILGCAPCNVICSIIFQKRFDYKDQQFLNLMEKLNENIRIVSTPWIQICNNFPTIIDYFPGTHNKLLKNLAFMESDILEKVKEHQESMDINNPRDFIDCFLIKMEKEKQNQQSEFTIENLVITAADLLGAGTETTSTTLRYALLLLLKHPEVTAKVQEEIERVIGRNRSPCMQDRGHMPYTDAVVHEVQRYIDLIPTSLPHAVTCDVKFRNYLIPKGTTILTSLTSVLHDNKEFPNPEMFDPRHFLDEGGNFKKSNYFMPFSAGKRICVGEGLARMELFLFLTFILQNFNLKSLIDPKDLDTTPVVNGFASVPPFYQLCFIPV

{"smiles record": "CN(C)CCCOc1ccc(-c2ccc3ncc4c(c3c2)n(C2CCOCC2)c(=O)n4C)cn1", "assayed system": "Cytochrome P450 2C19 (Homo sapiens, UniProt P33261)", "IC50": "> 30 µM"}

###

# assayed system: Serine-protein kinase ATM (Homo sapiens, UniProt Q13315)
# Sequence (Q13315 whole entry): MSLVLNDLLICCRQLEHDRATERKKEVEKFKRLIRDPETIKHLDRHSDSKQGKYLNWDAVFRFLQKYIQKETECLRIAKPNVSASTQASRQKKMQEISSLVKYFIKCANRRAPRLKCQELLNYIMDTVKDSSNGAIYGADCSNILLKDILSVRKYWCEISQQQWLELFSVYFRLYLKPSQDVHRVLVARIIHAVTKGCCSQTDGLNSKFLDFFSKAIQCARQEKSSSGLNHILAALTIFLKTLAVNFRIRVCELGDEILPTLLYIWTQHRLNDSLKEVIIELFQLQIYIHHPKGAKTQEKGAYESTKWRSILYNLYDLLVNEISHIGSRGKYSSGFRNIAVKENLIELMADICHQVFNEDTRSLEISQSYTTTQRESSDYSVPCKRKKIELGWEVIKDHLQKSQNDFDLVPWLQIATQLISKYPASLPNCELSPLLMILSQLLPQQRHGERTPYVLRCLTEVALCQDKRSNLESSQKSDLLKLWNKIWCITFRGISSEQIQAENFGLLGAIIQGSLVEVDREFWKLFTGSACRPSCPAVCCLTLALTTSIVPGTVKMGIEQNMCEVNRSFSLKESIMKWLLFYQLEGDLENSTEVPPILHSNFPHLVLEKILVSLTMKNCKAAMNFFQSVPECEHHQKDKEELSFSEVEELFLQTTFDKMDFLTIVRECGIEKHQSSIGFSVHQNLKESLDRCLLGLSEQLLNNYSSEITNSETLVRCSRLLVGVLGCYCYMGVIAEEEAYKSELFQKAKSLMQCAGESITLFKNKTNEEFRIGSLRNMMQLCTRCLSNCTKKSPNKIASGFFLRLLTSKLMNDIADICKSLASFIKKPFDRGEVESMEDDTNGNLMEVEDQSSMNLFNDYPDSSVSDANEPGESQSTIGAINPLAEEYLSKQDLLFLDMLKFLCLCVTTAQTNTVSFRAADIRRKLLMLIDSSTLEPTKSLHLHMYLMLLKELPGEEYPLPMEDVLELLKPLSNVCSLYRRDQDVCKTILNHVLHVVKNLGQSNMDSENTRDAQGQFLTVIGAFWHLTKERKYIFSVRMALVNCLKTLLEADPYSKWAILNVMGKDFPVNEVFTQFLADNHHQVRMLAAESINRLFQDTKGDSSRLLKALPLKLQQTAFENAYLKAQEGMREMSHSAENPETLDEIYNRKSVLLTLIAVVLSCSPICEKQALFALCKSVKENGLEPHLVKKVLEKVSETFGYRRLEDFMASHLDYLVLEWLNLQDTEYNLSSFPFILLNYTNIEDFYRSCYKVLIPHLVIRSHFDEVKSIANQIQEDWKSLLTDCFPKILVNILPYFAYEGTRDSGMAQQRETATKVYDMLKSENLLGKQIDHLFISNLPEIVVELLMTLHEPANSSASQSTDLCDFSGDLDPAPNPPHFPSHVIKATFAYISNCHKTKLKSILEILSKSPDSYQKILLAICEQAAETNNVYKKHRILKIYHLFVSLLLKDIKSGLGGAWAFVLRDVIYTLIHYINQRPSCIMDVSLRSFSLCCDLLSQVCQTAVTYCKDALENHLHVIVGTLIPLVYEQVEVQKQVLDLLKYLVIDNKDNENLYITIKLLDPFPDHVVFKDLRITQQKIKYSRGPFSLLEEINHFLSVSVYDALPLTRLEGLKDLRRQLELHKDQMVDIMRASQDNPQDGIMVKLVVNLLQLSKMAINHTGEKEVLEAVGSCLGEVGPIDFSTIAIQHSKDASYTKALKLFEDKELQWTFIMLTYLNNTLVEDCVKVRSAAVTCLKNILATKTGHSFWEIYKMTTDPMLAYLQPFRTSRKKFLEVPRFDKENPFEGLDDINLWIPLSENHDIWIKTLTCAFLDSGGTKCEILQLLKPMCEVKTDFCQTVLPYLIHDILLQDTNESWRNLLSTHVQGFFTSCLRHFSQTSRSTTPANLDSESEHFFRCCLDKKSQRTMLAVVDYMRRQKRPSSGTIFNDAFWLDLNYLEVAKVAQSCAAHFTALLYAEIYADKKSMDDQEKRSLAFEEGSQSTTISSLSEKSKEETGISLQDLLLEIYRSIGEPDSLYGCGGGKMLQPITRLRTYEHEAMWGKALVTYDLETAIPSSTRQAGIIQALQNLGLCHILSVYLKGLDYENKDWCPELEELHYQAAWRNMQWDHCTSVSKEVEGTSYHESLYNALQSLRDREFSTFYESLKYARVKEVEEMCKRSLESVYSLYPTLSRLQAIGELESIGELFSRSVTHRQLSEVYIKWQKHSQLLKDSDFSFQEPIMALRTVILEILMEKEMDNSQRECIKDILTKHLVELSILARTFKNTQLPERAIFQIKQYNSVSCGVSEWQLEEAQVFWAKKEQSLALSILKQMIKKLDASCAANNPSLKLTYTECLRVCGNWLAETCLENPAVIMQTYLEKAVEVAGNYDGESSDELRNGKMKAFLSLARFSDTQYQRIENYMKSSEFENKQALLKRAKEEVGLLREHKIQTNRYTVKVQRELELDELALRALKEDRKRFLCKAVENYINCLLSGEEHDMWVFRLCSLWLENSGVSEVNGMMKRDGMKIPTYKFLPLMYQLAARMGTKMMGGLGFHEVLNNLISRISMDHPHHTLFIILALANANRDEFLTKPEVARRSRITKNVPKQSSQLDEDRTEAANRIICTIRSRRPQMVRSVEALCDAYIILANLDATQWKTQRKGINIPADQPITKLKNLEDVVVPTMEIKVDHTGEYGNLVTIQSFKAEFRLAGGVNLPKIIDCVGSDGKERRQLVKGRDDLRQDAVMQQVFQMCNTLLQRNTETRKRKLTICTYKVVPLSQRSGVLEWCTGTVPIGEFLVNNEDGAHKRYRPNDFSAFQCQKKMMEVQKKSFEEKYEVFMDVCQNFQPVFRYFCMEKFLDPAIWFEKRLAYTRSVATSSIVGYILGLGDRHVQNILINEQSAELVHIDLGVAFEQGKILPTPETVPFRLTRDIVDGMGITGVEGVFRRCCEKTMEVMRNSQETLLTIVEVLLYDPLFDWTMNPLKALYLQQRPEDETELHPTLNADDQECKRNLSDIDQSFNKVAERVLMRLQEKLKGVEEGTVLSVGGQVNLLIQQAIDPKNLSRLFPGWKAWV
Cut-off 20 nM on IC50: below means 1, at or above means -1.

{"smiles record": "COCc1ccc(-c2cc3c(cc2F)ncc2c3n([C@H]3C[C@@H](O)C3)c(=O)n2C)cn1", "label class": -1}
{"smiles record": "CO[C@H]1C[C@@H](n2c(=O)n(C)c3cnc4ccc(-c5ccc(OCCCN6CCCC6)nc5)cc4c32)C1", "label class": 1}
{"smiles record": "Cn1c(=O)n(C2CCOCC2)c2c3cc(-c4ccc(OCCCN5CCCCC5)nc4)c(F)cc3ncc21", "label class": 1}
{"smiles record": "COCc1ccc(-c2cc3c(cc2F)ncc2c3n([C@H]3C[C@@H](OC)C3)c(=O)n2C)cn1", "label class": -1}
{"smiles record": "CO[C@H]1C[C@@H](n2c(=O)n(C)c3cnc4cc(F)c(-c5ccc(C(=O)NCCN(C)C)nc5)cc4c32)C1", "label class": -1}
{"smiles record": "COCc1ccc(-c2cc3c(cc2F)ncc2c3n([C@H]3C[C@H](OC)C3)c(=O)n2C)cn1", "label class": -1}
{"smiles record": "CN(C)CCCOc1ccc(-c2ccc3ncc4c(c3n2)n(C2CCOCC2)c(=O)n4C)cn1", "label class": 1}
{"smiles record": "CO[C@H]1C[C@@H](n2c(=O)n(C)c3cnc4cc(F)c(-c5ccc(N(C)CCN(C)C)nc5)cc4c32)C1", "label class": -1}
{"smiles record": "CCC(CC)CNc1c(C(N)=O)cnc2cc(F)c(-c3cnc(NCCN4CCCC4)nc3)cc12", "label class": 1}
{"smiles record": "CN(C)CCCOc1ccc(-c2ccc3nnc4c(c3c2)n(C2CCOCC2)c(=O)n4C)cn1", "label class": -1}
{"smiles record": "CO[C@H]1C[C@@H](n2c(=O)n(C)c3cnc4cc(F)c(-c5ccc(CS(C)(=O)=O)nc5)cc4c32)C1", "label class": -1}
{"smiles record": "Cn1c(=O)n([C@H]2CCCOC2)c2c3cc(-c4ccc(OCCCN5CCCCC5)nc4)c(F)cc3ncc21", "label class": 1}
{"smiles record": "CO[C@H]1C[C@@H](n2c(=O)n(C)c3cnc4cc(F)c(-c5ccc(OCCN(C)C)nc5)cc4c32)C1", "label class": -1}
{"smiles record": "CO[C@H]1C[C@@H](n2c(=O)n(C)c3cnc4cc(F)c(-c5ccc(CO)nc5)cc4c32)C1", "label class": -1}
{"smiles record": "COCc1ccc(-c2cc3c(cc2F)ncc2c3n([C@@H](C)C3CCOCC3)c(=O)n2C)cn1", "label class": -1}
{"smiles record": "CC(C)n1c(=O)n(C2CCOCC2)c2c3cc(-c4cccnc4)ccc3ncc21", "label class": -1}
{"smiles record": "CO[C@H]1C[C@@H](n2c(=O)n(C)c3cnc4ccc(-c5ccc(OCCCN6CCOCC6)nc5)cc4c32)C1", "label class": -1}
{"smiles record": "Cn1c(=O)n(C2CCOCC2)c2c3cc(-c4ccc(OCCC[N+](C)(C)[O-])nc4)ccc3ncc21", "label class": 1}
{"smiles record": "CO[C@H]1C[C@@H](n2c(=O)n(C)c3cnc4ccc(-c5ccc(OCCCN6CCC(O)CC6)nc5)cc4c32)C1", "label class": -1}

###

# test name: Solubility of the compound in phosphate buffer at pH 6.5
# Format: physicochemical
measurement type: solubility

{"smiles record": "CN(C)CCCOc1ccc(-c2ccc3ncc4c(c3c2)n(C2CCOCC2)c(=O)n4C)cn1", "measurement type": "solubility", "endpoint value": "> 5000 µg/mL"}

###

# key: entry, value: pKa
# test name: Dissociation constant, pKa of the compound
# Assay type: physicochemical
measurement type: pKa

{"smiles record": "CO[C@H]1C[C@@H](n2c(=O)n(C)c3cnc4ccc(-c5ccc(OCCCN6CCOCC6)nc5)cc4c32)C1", "endpoint value": 6.7}
{"smiles record": "CO[C@H]1C[C@@H](n2c(=O)n(C)c3cnc4cc(F)c(-c5ccc(OCCN(C)C)nc5)cc4c32)C1", "endpoint value": 8.5}
{"smiles record": "CO[C@H]1C[C@@H](n2c(=O)n(C)c3cnc4cc(F)c(-c5ccc(OCCCN(C)C)nc5)cc4c32)C1", "endpoint value": 9.3}
{"smiles record": "CN(C)CCCOc1ccc(-c2ccc3ncc4c(c3c2)n(C2CCOCC2)c(=O)n4C)cn1", "endpoint value": 9.6}
{"smiles record": "CO[C@H]1C[C@@H](n2c(=O)n(C)c3cnc4ccc(-c5ccc(OCCCN(C)C)nc5)cc4c32)C1", "endpoint value": 9.5}
{"smiles record": "CO[C@H]1C[C@@H](n2c(=O)n(C)c3cnc4ccc(-c5ccc(OCCCN6CCC(O)CC6)nc5)cc4c32)C1", "endpoint value": 8.4}
{"smiles record": "CNCCCOc1ccc(-c2ccc3ncc4c(c3c2)n([C@H]2C[C@@H](OC)C2)c(=O)n4C)cn1", "endpoint value": 10.3}

###

# assayed system: Cytochrome P450 2D6 (Homo sapiens, UniProt P10635)
# Sequence (P10635 whole entry): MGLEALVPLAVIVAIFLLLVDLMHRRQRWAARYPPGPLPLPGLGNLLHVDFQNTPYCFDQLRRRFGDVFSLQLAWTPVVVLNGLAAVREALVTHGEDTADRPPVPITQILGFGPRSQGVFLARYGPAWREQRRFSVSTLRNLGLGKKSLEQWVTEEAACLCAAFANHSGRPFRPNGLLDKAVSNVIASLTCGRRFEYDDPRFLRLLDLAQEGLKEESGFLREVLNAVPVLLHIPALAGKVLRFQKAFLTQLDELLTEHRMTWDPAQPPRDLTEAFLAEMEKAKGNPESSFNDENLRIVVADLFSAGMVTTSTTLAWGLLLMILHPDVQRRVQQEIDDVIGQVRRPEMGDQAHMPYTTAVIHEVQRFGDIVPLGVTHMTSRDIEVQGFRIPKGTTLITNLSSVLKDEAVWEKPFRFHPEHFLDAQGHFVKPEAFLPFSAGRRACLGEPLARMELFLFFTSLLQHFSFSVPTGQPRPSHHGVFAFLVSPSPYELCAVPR
pIC50: −log10 of the molar value.

{"smiles record": "CN(C)CCCOc1ccc(-c2ccc3ncc4c(c3c2)n(C2CCOCC2)c(=O)n4C)cn1", "pIC50": "< 4.52"}

###

# test name: Thermodynamic solubility of the compound in 0.1M aqueous phosphate buffer at pH 7.4 after 24 hrs by LC-UV analysis
# Type: physicochemical
# test settings: read-out: Therm_solubility
solubility thermodynamic at 24 h by entry:
measurement type: solubility thermodynamic at 24 h (µM)

{"smiles record": "CN(C)CCCOc1ccc(-c2ccc3ncc4c(c3c2)n([C@H]2C[C@@H](O)C2)c(=O)n4C)cn1", "measurement type": "solubility thermodynamic at 24 h", "value relation sign": ">", "endpoint value": 1000}
{"smiles record": "CN(C)CCCOc1ccc(-c2cc3c(cc2F)ncc2c3n(C3CCOCC3)c(=O)n2C)cn1", "measurement type": "solubility thermodynamic at 24 h", "value relation sign": ">", "endpoint value": 1000}
{"smiles record": "CN(C)CCCOc1ccc(-c2ccc3ncc4c(c3c2)n([C@@H]2CCCOC2)c(=O)n4C)cn1", "measurement type": "solubility thermodynamic at 24 h", "value relation sign": ">", "endpoint value": 1000}
{"smiles record": "Cn1c(=O)n(C2CCOCC2)c2c3cc(-c4ccc(OCCCN5CCCCC5)nc4)c(F)cc3ncc21", "measurement type": "solubility thermodynamic at 24 h", "value relation sign": "=", "endpoint value": 310}
{"smiles record": "CNCCCOc1ccc(-c2ccc3ncc4c(c3c2)n([C@H]2C[C@@H](OC)C2)c(=O)n4C)cn1", "measurement type": "solubility thermodynamic at 24 h", "value relation sign": "=", "endpoint value": 930}
{"smiles record": "CO[C@H]1C[C@@H](n2c(=O)n(C)c3cnc4cc(F)c(-c5ccc(NC(=O)CCCN(C)C)nc5)cc4c32)C1", "measurement type": "solubility thermodynamic at 24 h", "value relation sign": "=", "endpoint value": 870}
{"smiles record": "CN(C)CCCOc1ccc(-c2ccc3ncc4c(c3c2)n(C2COC2)c(=O)n4C)cn1", "measurement type": "solubility thermodynamic at 24 h", "value relation sign": "=", "endpoint value": 52}
{"smiles record": "COCc1ccc(-c2cc3c(cc2F)ncc2c3n([C@H]3CC[C@H](OC)CC3)c(=O)n2C)cn1", "measurement type": "solubility thermodynamic at 24 h", "value relation sign": "=", "endpoint value": 84}

###

solubility thermodynamic at 24 h values by entry
# test name: Thermodynamic solubility of the compound in 0.1M aqueous phosphate buffer at pH 7.4 after 24 hrs by LC-UV analysis
# Format: physicochemical
# test settings: read-out: Therm_solubility

{"smiles record": "O=c1[nH]c2cnc3ccc(-c4cccnc4)cc3c2n1C1CCOCC1", "value relation sign": "=", "solubility thermodynamic at 24 h, µM": 12}
{"smiles record": "CO[C@H]1C[C@@H](n2c(=O)n(C)c3cnc4cc(F)c(-c5ccc(N(C)CCN(C)C)nc5)cc4c32)C1", "value relation sign": ">", "solubility thermodynamic at 24 h, µM": 1000}
{"smiles record": "COCc1ccc(-c2cc3c(cc2F)ncc2c3n([C@H]3C[C@@H](OC)C3)c(=O)n2C)cn1", "value relation sign": "=", "solubility thermodynamic at 24 h, µM": 37}
{"smiles record": "COCc1ccc(-c2cc3c(cc2F)ncc2c3n([C@@H](C)C3CCOCC3)c(=O)n2C)cn1", "value relation sign": ">", "solubility thermodynamic at 24 h, µM": 1000}
{"smiles record": "CO[C@H]1C[C@@H](n2c(=O)n(C)c3cnc4cc(F)c(-c5ccc(CS(C)(=O)=O)nc5)cc4c32)C1", "value relation sign": "=", "solubility thermodynamic at 24 h, µM": 18}
{"smiles record": "CO[C@H]1C[C@@H](n2c(=O)n(C)c3cnc4cc(F)c(-c5ccc(OCCCN(C)C)nc5F)cc4c32)C1", "value relation sign": ">", "solubility thermodynamic at 24 h, µM": 1000}
{"smiles record": "COCc1ccc(-c2cc3c(cc2F)ncc2c3n(C3CCOCC3)c(=O)n2C)cn1", "value relation sign": "=", "solubility thermodynamic at 24 h, µM": 99}
{"smiles record": "CO[C@H]1C[C@@H](n2c(=O)n(C)c3cnc4ccc(-c5ccc(OCCCN(C)C)nc5)cc4c32)C1", "value relation sign": "=", "solubility thermodynamic at 24 h, µM": 540}
{"smiles record": "CO[C@H]1C[C@@H](n2c(=O)n(C)c3cnc4cc(F)c(-c5ccc(OCCCN(C)C)nc5)cc4c32)C1", "value relation sign": ">", "solubility thermodynamic at 24 h, µM": 980}
{"smiles record": "NC(=O)c1cnc2ccc(-c3cccnc3)cc2c1NC1CCOCC1", "value relation sign": ">", "solubility thermodynamic at 24 h, µM": 610}
{"smiles record": "CN(C)CCCOc1ccc(-c2ccc3ncc4c(c3c2)n([C@H]2CCCOC2)c(=O)n4C)cn1", "value relation sign": ">", "solubility thermodynamic at 24 h, µM": 1000}
